src = ChEMBL document CHEMBL3994615

# Tested on: Enterococcus faecalis
# test description: Antibacterial activity against Enterococcus faecalis ATCC 29212 after overnight incubation by broth dilution method
# Assay type: functional
Assign labels as follows, please: yes (1) for MIC below 2 µg/mL; no (0) for MIC equal to or exceeding 2 µg/mL.

INSERT INTO results (compound, classification) VALUES
  ('C=C[C@]1(C)C[C@@H](OC(=O)CO)[C@]2(C)[C@H](C)CC[C@]3(CCC(=O)[C@H]32)[C@@H](C)[C@@H]1O [PLEUROMULIN]', 'no (0)'),
  ('C=C[C@]1(C)C[C@@H](OC(=O)CN2CCN(C(=O)CN3CCN(c4ccc([N+](=O)[O-])cc4)CC3)CC2)[C@]2(C)[C@H](C)CC[C@]3(CCC(=O)[C@H]32)[C@@H](C)[C@@H]1O', 'yes (1)'),
  ('C=C[C@]1(C)C[C@@H](OC(=O)CN2CCN(C(=O)CN3CCN(c4ccccc4OC)CC3)CC2)[C@]2(C)[C@H](C)CC[C@]3(CCC(=O)[C@H]32)[C@@H](C)[C@@H]1O', 'no (0)'),
  ('C=C[C@]1(C)C[C@@H](OC(=O)CN2CCN(C(=O)CN3CCN(c4ccc(O)cc4)CC3)CC2)[C@]2(C)[C@H](C)CC[C@]3(CCC(=O)[C@H]32)[C@@H](C)[C@@H]1O', 'no (0)'),
  ('C=C[C@]1(C)C[C@@H](OC(=O)CN2CCN(C(=O)CN3CCN(c4ccccc4)CC3)CC2)[C@]2(C)[C@H](C)CC[C@]3(CCC(=O)[C@H]32)[C@@H](C)[C@@H]1O', 'no (0)'),
  ('C=C[C@]1(C)C[C@@H](OC(=O)CSC(C)(C)CNC(=O)[C@H](N)C(C)C)[C@]2(C)[C@H](C)CC[C@]3(CCC(=O)[C@H]32)[C@@H](C)[C@@H]1O [VALNEMULIN]', 'yes (1)'),
  ('C=C[C@]1(C)C[C@@H](OC(=O)CN2CCNCC2)[C@]2(C)[C@H](C)CC[C@]3(CCC(=O)[C@H]32)[C@@H](C)[C@@H]1O', 'no (0)'),
  ('C=C[C@]1(C)C[C@@H](OC(=O)CN2CCN(C(=O)CN3CCN(c4cccc(C)c4)CC3)CC2)[C@]2(C)[C@H](C)CC[C@]3(CCC(=O)[C@H]32)[C@@H](C)[C@@H]1O', 'no (0)'),
  ('C=C[C@]1(C)C[C@@H](OC(=O)CN2CCN(C(=O)CCl)CC2)[C@]2(C)[C@H](C)CC[C@]3(CCC(=O)[C@H]32)[C@@H](C)[C@@H]1O', 'no (0)'),
  ('C=C[C@]1(C)C[C@@H](OC(=O)CN2CCN(C(=O)CN3CCN(c4ccccc4Cl)CC3)CC2)[C@]2(C)[C@H](C)CC[C@]3(CCC(=O)[C@H]32)[C@@H](C)[C@@H]1O', 'no (0)');
